# EXPERIMENTAL_SYSTEM: T1, DDX1 (DDX1-728) (Homo sapiens, UniProt Q92499 1-728)
# T1 sequence: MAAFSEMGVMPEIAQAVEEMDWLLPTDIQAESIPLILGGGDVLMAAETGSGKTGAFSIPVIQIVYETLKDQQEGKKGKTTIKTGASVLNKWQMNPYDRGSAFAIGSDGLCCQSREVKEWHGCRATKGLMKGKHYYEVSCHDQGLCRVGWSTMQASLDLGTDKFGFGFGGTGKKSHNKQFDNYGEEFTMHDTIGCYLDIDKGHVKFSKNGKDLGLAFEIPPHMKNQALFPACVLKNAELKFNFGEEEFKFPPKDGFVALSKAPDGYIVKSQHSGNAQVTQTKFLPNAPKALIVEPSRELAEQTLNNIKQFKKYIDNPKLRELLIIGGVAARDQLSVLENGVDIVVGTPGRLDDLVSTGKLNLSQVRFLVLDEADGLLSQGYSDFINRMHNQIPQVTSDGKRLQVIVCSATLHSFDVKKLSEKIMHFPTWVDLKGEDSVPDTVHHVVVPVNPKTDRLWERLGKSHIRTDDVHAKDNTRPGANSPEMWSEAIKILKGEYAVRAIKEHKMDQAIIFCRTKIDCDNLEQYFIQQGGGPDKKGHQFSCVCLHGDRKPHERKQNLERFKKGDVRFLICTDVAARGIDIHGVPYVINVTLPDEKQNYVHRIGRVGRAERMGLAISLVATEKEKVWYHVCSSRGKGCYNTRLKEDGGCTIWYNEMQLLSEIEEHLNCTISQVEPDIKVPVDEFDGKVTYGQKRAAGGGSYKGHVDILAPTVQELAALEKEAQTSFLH
# EXPERIMENT_SUMMARY: mantdADP displacement fluorescence titration, global fit
pKd: −log10 of the molar value.
MEASURE: pKd

{"BINDER": "AAAAAAAAAA (ssRNA) [10mer polyA RNA]", "MEASURE": "pKd", "RECORDED_RESULT": 6.44}
